molecular target: PAR4 (Homo sapiens); construct: expressed in transfected cells; host or cells: HEK293 PAR4 Clone 1.2A (BMS Arctic ID 383940); experiment: PAR4 FLIPR assay (antagonism of agonist peptide-induced calcium mobilization); format: cell-based
Sequence (Q96RI0 18-385): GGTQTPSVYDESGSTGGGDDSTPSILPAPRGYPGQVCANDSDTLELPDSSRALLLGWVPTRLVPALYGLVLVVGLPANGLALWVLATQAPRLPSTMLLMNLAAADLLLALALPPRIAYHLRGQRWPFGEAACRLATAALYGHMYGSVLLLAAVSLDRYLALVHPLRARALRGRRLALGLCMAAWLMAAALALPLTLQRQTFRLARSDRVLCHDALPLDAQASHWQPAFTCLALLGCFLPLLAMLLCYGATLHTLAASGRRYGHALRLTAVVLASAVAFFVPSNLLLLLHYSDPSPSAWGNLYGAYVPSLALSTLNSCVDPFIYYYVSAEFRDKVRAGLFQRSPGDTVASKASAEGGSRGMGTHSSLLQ
pIC50: −log10 of the molar value.
Param threshold (8) applies to pIC50; output condition met when value >= threshold, condition not met when value < threshold.

>>> class_assignment("COc1cnc2c(-c3nc4cc(F)c5c(c4s3)C[C@H](COC(=O)Nc3ccc(C)nc3)O5)cc(C)cc2n1")
"condition met"
>>> class_assignment("COc1cnc2c(-c3nc4c(C(O)C5(C)CCCCC5)cc5c(c4s3)OCCO5)cc(C)cc2n1 (stereo not drawn)")
"condition not met"
>>> class_assignment("COc1cnc2c(-c3nc4c(Cl)cc5c(c4s3)OC[C@H](COC(=O)Nc3ccncc3)O5)cc(C)cc2n1")
"condition met"
>>> class_assignment("COc1cnc2c(-c3nc4ccc5c(c4s3)C[C@@](C)(CO)O5)cc(C)cc2n1 (single isomer, unassigned)")
"condition met"
>>> class_assignment("COc1cnc2c(-c3nc4ccc5c(c4s3)OC[C@H](COC(=O)Nc3cnc(C)nc3)O5)cc(C)cc2n1")
"condition met"
>>> class_assignment("COCc1cnc2c(-c3nc4cc5c(cc4s3)OCO5)cc(C)cc2n1")
"condition met"
>>> class_assignment("COc1cnc2c(-c3nc4cc(F)c5c(c4s3)[C@@H](C)[C@H](COC(=O)Nc3cnc(OCCO)nc3)O5)cc(C)cc2n1")
"condition not met"
>>> class_assignment("COc1cnc2c(-c3nc4c(Cl)cc5c(c4s3)OC[C@H](COC(=O)Nc3cccnc3)O5)cc(C)cc2n1")
"condition met"
>>> class_assignment("COc1cnc2c(-c3nc4cc(F)c5c(c4s3)C[C@H](COC(=O)Nc3cncc(C(N)=O)c3)O5)cc(C)cc2n1")
"condition met"
>>> class_assignment("COc1cnc2c(-c3nc4cc(F)c5c(c4s3)C[C@H](COC(=O)Nc3cccnc3)O5)cc(Cl)cc2c1")
"condition met"
>>> class_assignment("COc1cnc2c(-c3nc4c(Cl)cc5c(c4s3)OC[C@H](COC(=O)Nc3ccc4scnc4c3)O5)cc(C)cc2n1")
"condition not met"
